- System: 556581-035-R-J1-PDC complex spheroid growth;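 further: spheroids exposed to agents for 7 days before viability read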
- experimental_protocol: Anticancer human tumor 556581-035-R-J1-PDC patient-derived ovarian carcinoma cell line growth inhibition [Asc]; active means viability on the fitted dose curve at most 10% of control; inactive means the rest
- conditions: second compound 0.03 µM; first compound 1 µM
# valid calls are t (active), f (inactive); nothing else

Data request: Hi team, can someone confirm the assay call for C=CC(=O)N1CCN(c2nc(=O)n(-c3c(C)ccnc3C(C)C)c3nc(-c4c(O)cccc4F)c(F)cc23)C(C)C1 (stereo not drawn) + CCN1C(C(=O)NC23CCC(C(=O)O)(CC2)CC3)C(c2cccc(Cl)c2F)C2(C(=O)Nc3cc(Cl)ccc32)C12CCCCC2 ?
Data returned: f

Data request: Hi team, can someone confirm the assay call for C=C(F)C(=O)N1CCN(c2nc(OCC3CCCN3C)nc3c2CCN(c2cccc4cccc(Cl)c24)C3)CC1CC#N (stereo not drawn) + CCN1C(C(=O)NC23CCC(C(=O)O)(CC2)CC3)C(c2cccc(Cl)c2F)C2(C(=O)Nc3cc(Cl)ccc32)C12CCCCC2 ?
Data returned: f

Data request: Hi team, can someone confirm the assay call for CNC(C)C(=O)NC1CN(S(=O)(=O)c2cccc(S(=O)(=O)N3CCC4CCC(C(=O)NC(c5ccccc5)c5ccccc5)N4C(=O)C(NC(=O)C(C)NC)C3)c2)CCC2CCC(C(=O)NC(c3ccccc3)c3ccccc3)N2C1=O (stereo not drawn) + CCN1C(C(=O)NC23CCC(C(=O)O)(CC2)CC3)C(c2cccc(Cl)c2F)C2(C(=O)Nc3cc(Cl)ccc32)C12CCCCC2 ?
Data returned: f

Data request: Hi team, can someone confirm the assay call for COc1c(OCCCN2CCOCC2)ccc2c3n(c(=NC(=O)c4cnc(N)nc4)nc12)CCN3 + CCN1C(C(=O)NC23CCC(C(=O)O)(CC2)CC3)C(c2cccc(Cl)c2F)C2(C(=O)Nc3cc(Cl)ccc32)C12CCCCC2 ?
Data returned: f

Data request: Hi team, can someone confirm the assay call for CCN1CCN(Cc2ccc(Nc3ncc(F)c(-c4cc(F)c5nc(C)n(C(C)C)c5c4)n3)nc2)CC1 + CCN1C(C(=O)NC23CCC(C(=O)O)(CC2)CC3)C(c2cccc(Cl)c2F)C2(C(=O)Nc3cc(Cl)ccc32)C12CCCCC2 ?
Data returned: f

Data request: Hi team, can someone confirm the assay call for O=C(c1ccc(F)c(F)c1Nc1ccc(I)cc1F)N1CC(O)([C@@H]2CCCCN2)C1 + CCN1C(C(=O)NC23CCC(C(=O)O)(CC2)CC3)C(c2cccc(Cl)c2F)C2(C(=O)Nc3cc(Cl)ccc32)C12CCCCC2 ?
Data returned: t

Data request: Hi team, can someone confirm the assay call for C#Cc1c(F)ccc2cc(O)cc(-c3ncc4c(N5CC6CCC(C5)N6)nc(OCC56CCCN5CC(F)C6)nc4c3F)c12 (stereo not drawn) + CCN1C(C(=O)NC23CCC(C(=O)O)(CC2)CC3)C(c2cccc(Cl)c2F)C2(C(=O)Nc3cc(Cl)ccc32)C12CCCCC2 ?
Data returned: f

Data request: Hi team, can someone confirm the assay call for O=C(c1cc(Cc2n[nH]c(=O)c3ccccc23)ccc1F)N1CCN(C(=O)C2CC2)CC1 + CCN1C(C(=O)NC23CCC(C(=O)O)(CC2)CC3)C(c2cccc(Cl)c2F)C2(C(=O)Nc3cc(Cl)ccc32)C12CCCCC2 ?
Data returned: f
